# pIC50 per record follows
system: Trypanosoma brucei; test: Antiparasitic activity against Trypanosoma brucei 221 blood stream form at pH 7.4; assay type: functional, organism-based
Here pIC50 is given on a logarithmic scale as minus log10 of the concentration in mol/L.

                                molecule  property_label  recorded_number
0            C1CC2(CCN1)C1CC3CC(C1)CC2C3           pIC50             5.28
1  O=C1NC(=O)C2(C(=O)N1)C1CC3CC(C1)CC2C3           pIC50             4.70

Q: Report pIC50 for CC(N)C12CC3CC(CC(C3)C1)C2 (configuration not stated) tested on Trypanosoma brucei.
Ans: 5.15
